Measured IC50 by item
target.or.system: Recombinant human TPH1 (MBP tagged) (Homo sapiens, UniProt P17752)
Construct: cloning full length human TPH1 cDNA in to a bacterial pMAL-c5E expression vector; made in house; host or cells: E. coli BL21 (DE3)
Sequence (P17752 1-444): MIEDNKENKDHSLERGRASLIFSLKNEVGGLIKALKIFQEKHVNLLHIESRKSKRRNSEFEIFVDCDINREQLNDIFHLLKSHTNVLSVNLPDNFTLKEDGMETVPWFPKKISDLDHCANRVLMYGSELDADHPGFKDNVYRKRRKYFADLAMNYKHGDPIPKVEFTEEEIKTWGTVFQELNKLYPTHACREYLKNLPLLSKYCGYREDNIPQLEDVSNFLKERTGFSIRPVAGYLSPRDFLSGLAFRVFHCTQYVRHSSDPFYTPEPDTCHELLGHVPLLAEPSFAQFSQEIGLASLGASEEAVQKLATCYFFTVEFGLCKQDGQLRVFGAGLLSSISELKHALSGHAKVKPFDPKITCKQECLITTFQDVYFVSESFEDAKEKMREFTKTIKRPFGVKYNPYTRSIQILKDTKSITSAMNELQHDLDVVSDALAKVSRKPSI
assay.protocol: TPH1 in vitro inhibition assay (kinetic fluorescence)
Format: biochemical
condition.notes: read-out: TPH1 Range (TPH1 inhibition IC50)
quantity.kind: IC50

- Cc1ccn(-c2cc(-c3ccc4c(C)n[nH]c4c3)ccc2[C@@H](Oc2cc(N3CCC4(CC3)CN[C@H](C(=O)O)C4)nc(N)n2)C(F)(F)F)n1: < 50 nM
- Nc1nc(O[C@H](c2ccc(Cl)cc2-c2cccc(C(=O)O)c2)C(F)(F)F)cc(N2CCC3(CC2)CN[C@H](C(=O)O)C3)n1 [Example 34ab]: 300 to 3000 nM
- Cc1ccn(-c2cc(-c3ccc(F)c(C)c3)ccc2[C@@H](Oc2cc(N3CCC4(CC3)CN[C@H](C(=O)O)C4)nc(N)n2)C(F)(F)F)n1: < 50 nM
- CN(C)Cc1ccc(-c2ccc([C@@H](Oc3cc(N4CCC5(CC4)CN[C@H](C(=O)O)C5)nc(N)n3)C(F)(F)F)cc2)cc1 [Example 55bf]: 50 to 300 nM
- CCCCOC(=O)c1ccc([C@@H](Oc2cc(N3CCC4(CC3)CN[C@H](C(=O)O)C4)nc(N)n2)C(F)(F)F)c(-n2ccc(C)n2)c1 [Example 18c]: < 50 nM
- CCOc1cc(-c2ccc([C@@H](Oc3cc(N4CCC5(CC4)CN[C@H](C(=O)O)C5)nc(N)n3)C(F)(F)F)c(-n3ccc(C)n3)c2)ccc1F: < 50 nM
- Cn1ccc(-c2cc(Cl)ccc2[C@@H](Oc2cc(N3CCC4(CC3)CN[C@H](C(=O)O)C4)nc(N)n2)C(F)(F)F)n1 [Example 34t]: 50 to 300 nM
- Cc1ccn(-c2cc(-c3cccc(C(=O)O)c3)ccc2[C@@H](Oc2cc(N3CCC4(CC3)CN[C@H](C(=O)O)C4)nc(N)n2)C(F)(F)F)n1: < 50 nM
- Cc1ccn(-c2cc(-c3ccc(C(N)=O)cc3)ccc2[C@@H](Oc2cc(N3CCC4(CC3)CN[C@H](C(=O)O)C4)nc(N)n2)C(F)(F)F)n1: < 50 nM
- COc1ccccc1-c1ccc([C@@H](Oc2cc(N3CCC4(CC3)CN[C@H](C(=O)O)C4)nc(C)n2)C(F)(F)F)c(-n2ccc(C)n2)c1 [Example 29p]: < 50 nM
- Cc1ccn(-c2cc(-c3cc(C)c(Cl)c(C)c3)ccc2[C@@H](Oc2cc(N3CCC4(CC3)CN[C@H](C(=O)O)C4)nc(N)n2)C(F)(F)F)n1: < 50 nM
- Cc1ccn(-c2cc(-c3ccncc3)ccc2[C@@H](Oc2cc(N3CCC4(CC3)CN[C@H](C(=O)O)C4)nc(N)n2)C(F)(F)F)n1: < 50 nM
- Cc1ccn(-c2cc(C#N)ccc2[C@@H](Oc2cc(N3CCC4(CC3)CN[C@H](C(=O)O)C4)nc(N)n2)C(F)(F)F)n1: < 50 nM
- Cc1ccn(-c2ccc(-c3ccc(/C=C/C(=O)O)cc3)cc2[C@@H](Oc2cc(N3CCC4(CC3)CN[C@H](C(=O)O)C4)nc(N)n2)C(F)(F)F)n1 [Example 19i]: < 50 nM
- CCCCc1ccc([C@@H](Oc2cc(N3CCC4(CC3)CN[C@H](C(=O)O)C4)nc(N)n2)C(F)(F)F)c(-n2ccc(C)n2)c1 [Example 12c]: < 50 nM
- Cc1ccn(-c2cc(-c3ccc4c(c3)CCCO4)ccc2[C@@H](Oc2cc(N3CCC4(CC3)CN[C@H](C(=O)O)C4)nc(N)n2)C(F)(F)F)n1: < 50 nM
- Nc1nc(O[C@H](c2ccc(Cl)cc2-c2cnccn2)C(F)(F)F)cc(N2CCC3(CC2)CN[C@H](C(=O)O)C3)n1 [Example 34cu]: < 50 nM
- COc1cc(F)ccc1-c1ccc([C@@H](Oc2cc(N3CCC4(CC3)CN[C@H](C(=O)O)C4)nc(N)n2)C(F)(F)F)cc1 [Example 55bl]: 300 to 3000 nM
